B1: TPR 5TU (parent)
chain: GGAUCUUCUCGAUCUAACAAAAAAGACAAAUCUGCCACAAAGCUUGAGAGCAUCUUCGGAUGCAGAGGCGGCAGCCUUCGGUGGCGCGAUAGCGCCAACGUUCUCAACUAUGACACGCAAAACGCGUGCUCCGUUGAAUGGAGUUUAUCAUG

variants of: B1; experiment: polymerase ribozyme fitness, log enrichment relative to wild type (log ratio); higher = more active; in vitro selection for triplet polymerase activity
Fewer inactive variants are shown than the library holds.
Recorded polymerase ribozyme fitness (log ratio) by entry
The answer should be a number; do not append a unit.

Consider the following illustrative entries.
mutation list	measurement kind	assay result
G94U C116G	polymerase ribozyme fitness (log ratio)	-0.502
A3U C99U	polymerase ribozyme fitness (log ratio)	-0.307
U15C C35U U56A A89C	polymerase ribozyme fitness (log ratio)	0.662
C69A C85U C123A	polymerase ribozyme fitness (log ratio)	-2.37

(Q) Give the measured polymerase ribozyme fitness (log ratio) of A22G U144C .
(A) 0.51

(Q) So what's the measured polymerase ribozyme fitness (log ratio) for this one? C14U C57A
(A) -0.738

(Q) Suppose we examine the variant C54U C95U G133C ; what polymerase ribozyme fitness (log ratio) value has been reported?
(A) -2.19

(Q) Item C93U C118A U144G has what recorded polymerase ribozyme fitness (log ratio)?
(A) -1.06

(Q) Look at this variant and give its reported polymerase ribozyme fitness (log ratio). C10U
(A) -2.16

(Q) Recorded polymerase ribozyme fitness (log ratio) of A26U A52G C85U , please.
(A) -1.69

(Q) Entry C76U C85G : reported polymerase ribozyme fitness (log ratio) = ?
(A) -0.632

(Q) # polymerase ribozyme fitness (log ratio) lookup, item C10G C69G
(A) -4.16

(Q) Record request: polymerase ribozyme fitness (log ratio) value, item G88U A115C A120G
(A) -3.89

(Q) // polymerase ribozyme fitness (log ratio) lookup, key: G11U C93G
(A) -3.88
